assay: Phase I five-way crossover: intranasal and sublingual naloxone spray 8 mg and 16 mg versus 0.4 mg intramuscular, plasma concentrations; type: in vivo, human subjects; conditions: human, plasma; 0.4 mg IM; time-zero to 1 hour post dose
reported.endpoint: AUC (ng·h/mL)
Write the value in ng·h/mL as a bare number.

Record C=CCN1CC[C@]23c4c5ccc(O)c4O[C@H]2C(=O)CC[C@@]3(O)[C@H]1C5 [naloxone, Naloxone] . Reported AUC: 0.57

----------
assay: Phase I five-way crossover: intranasal and sublingual naloxone spray 8 mg and 16 mg versus 0.4 mg intramuscular, plasma concentrations; type: in vivo, human subjects; conditions: human, other: intranasal; 8 mg IN; plasma, mean ± SD; read-out: Conc. @ 0.25 h
reported.endpoint: concentration at […] (ng/mL)
Write the value in ng/mL as a bare number.

Record C=CCN1CC[C@]23c4c5ccc(O)c4O[C@H]2C(=O)CC[C@@]3(O)[C@H]1C5 [naloxone, Naloxone] . Reported concentration at […]: 16.5

----------
test: Phase I five-way crossover: intranasal and sublingual naloxone spray 8 mg and 16 mg versus 0.4 mg intramuscular, plasma concentrations; assay type: in vivo, human subjects; conditions: human, plasma, other: sublingual; 16 mg SL; time-zero to 1 hour post dose
reported.endpoint: AUC
Include the unit after the number when you answer.

Record C=CCN1CC[C@]23c4c5ccc(O)c4O[C@H]2C(=O)CC[C@@]3(O)[C@H]1C5 . Reported AUC: 3.42 ng·h/mL

----------
experiment: Phase I five-way crossover: intranasal and sublingual naloxone spray 8 mg and 16 mg versus 0.4 mg intramuscular, plasma concentrations; assay type: in vivo, human subjects; conditions: human, intramuscular; 0.4 mg IM; plasma, mean ± SD
reported.endpoint: concentration at 0.07 h (ng/mL)
Write the value in ng/mL as a bare number.

Record C=CCN1CC[C@]23c4c5ccc(O)c4O[C@H]2C(=O)CC[C@@]3(O)[C@H]1C5 . Reported concentration at 0.07 h: 0.36

----------
experiment: Phase I five-way crossover: intranasal and sublingual naloxone spray 8 mg and 16 mg versus 0.4 mg intramuscular, plasma concentrations; type: in vivo, human subjects; settings: human, other: intranasal; 16 mg IN; plasma, mean ± SD
reported.endpoint: concentration at 0.17 h (ng/mL)
Write the value in ng/mL as a bare number.

Record C=CCN1CC[C@]23c4c5ccc(O)c4O[C@H]2C(=O)CC[C@@]3(O)[C@H]1C5 . Reported concentration at 0.17 h: 45.8

----------
assay: Phase I five-way crossover: intranasal and sublingual naloxone spray 8 mg and 16 mg versus 0.4 mg intramuscular, plasma concentrations; type: in vivo, human subjects; conditions: human, other: intranasal; 16 mg IN; plasma, mean ± SD
reported.endpoint: concentration at 0.1 h
Include the unit after the number when you answer.

Record C=CCN1CC[C@]23c4c5ccc(O)c4O[C@H]2C(=O)CC[C@@]3(O)[C@H]1C5 . Reported concentration at 0.1 h: 46.3 ng/mL

----------
assay: Phase I five-way crossover: intranasal and sublingual naloxone spray 8 mg and 16 mg versus 0.4 mg intramuscular, plasma concentrations; assay type: in vivo, human subjects; details: human, other: sublingual; 8 mg SL; plasma, mean ± SD; read-out: Conc. @ 0.25 h
reported.endpoint: concentration at […] (ng/mL)
Write the value in ng/mL as a bare number.

Record C=CCN1CC[C@]23c4c5ccc(O)c4O[C@H]2C(=O)CC[C@@]3(O)[C@H]1C5 . Reported concentration at […]: 1.98

----------
test: Phase I five-way crossover: intranasal and sublingual naloxone spray 8 mg and 16 mg versus 0.4 mg intramuscular, plasma concentrations; assay type: in vivo, human subjects; settings: human, other: intranasal; 8 mg IN; plasma, mean ± SD
reported.endpoint: concentration at 0.03 h (ng/mL)
Write the value in ng/mL as a bare number.

Record C=CCN1CC[C@]23c4c5ccc(O)c4O[C@H]2C(=O)CC[C@@]3(O)[C@H]1C5 . Reported concentration at 0.03 h: 6.19

----------
assay: Phase I five-way crossover: intranasal and sublingual naloxone spray 8 mg and 16 mg versus 0.4 mg intramuscular, plasma concentrations; type: in vivo, human subjects; details: human, other: sublingual; 8 mg SL; plasma, mean ± SD
reported.endpoint: concentration at 0.5 h
Include the unit after the number when you answer.

Record C=CCN1CC[C@]23c4c5ccc(O)c4O[C@H]2C(=O)CC[C@@]3(O)[C@H]1C5 [naloxone, Naloxone] . Reported concentration at 0.5 h: 2.03 ng/mL

----------
test: Phase I five-way crossover: intranasal and sublingual naloxone spray 8 mg and 16 mg versus 0.4 mg intramuscular, plasma concentrations; type: in vivo, human subjects; details: human, intramuscular; 0.4 mg IM; plasma, mean ± SD
reported.endpoint: concentration at 0.17 h (ng/mL)
Write the value in ng/mL as a bare number.

Record C=CCN1CC[C@]23c4c5ccc(O)c4O[C@H]2C(=O)CC[C@@]3(O)[C@H]1C5 [naloxone, Naloxone] . Reported concentration at 0.17 h: 0.63

----------
test: Phase I five-way crossover: intranasal and sublingual naloxone spray 8 mg and 16 mg versus 0.4 mg intramuscular, plasma concentrations; format: in vivo, human subjects; conditions: human, plasma, other: sublingual; 16 mg SL
reported.endpoint: Cmax (ng/mL)
Write the value in ng/mL as a bare number.

Record C=CCN1CC[C@]23c4c5ccc(O)c4O[C@H]2C(=O)CC[C@@]3(O)[C@H]1C5 . Reported Cmax: 4.39

----------
experiment: Phase I five-way crossover: intranasal and sublingual naloxone spray 8 mg and 16 mg versus 0.4 mg intramuscular, plasma concentrations; assay type: in vivo, human subjects; settings: human, other: intranasal; 16 mg IN; plasma, mean ± SD
reported.endpoint: concentration at 0.13 h (ng/mL)
Write the value in ng/mL as a bare number.

Record C=CCN1CC[C@]23c4c5ccc(O)c4O[C@H]2C(=O)CC[C@@]3(O)[C@H]1C5 . Reported concentration at 0.13 h: 49.3

----------
test: Phase I five-way crossover: intranasal and sublingual naloxone spray 8 mg and 16 mg versus 0.4 mg intramuscular, plasma concentrations; format: in vivo, human subjects; details: human, other: sublingual; 8 mg SL; plasma, mean ± SD
reported.endpoint: concentration at 0.07 h (ng/mL)
Write the value in ng/mL as a bare number.

Record C=CCN1CC[C@]23c4c5ccc(O)c4O[C@H]2C(=O)CC[C@@]3(O)[C@H]1C5 [naloxone, Naloxone] . Reported concentration at 0.07 h: 0.62

----------
test: Phase I five-way crossover: intranasal and sublingual naloxone spray 8 mg and 16 mg versus 0.4 mg intramuscular, plasma concentrations; assay type: in vivo, human subjects; conditions: human, other: sublingual; 16 mg SL; plasma, mean ± SD
reported.endpoint: concentration at 0.5 h (ng/mL)
Write the value in ng/mL as a bare number.

Record C=CCN1CC[C@]23c4c5ccc(O)c4O[C@H]2C(=O)CC[C@@]3(O)[C@H]1C5 . Reported concentration at 0.5 h: 3.94

----------
assay: Phase I five-way crossover: intranasal and sublingual naloxone spray 8 mg and 16 mg versus 0.4 mg intramuscular, plasma concentrations; type: in vivo, human subjects; settings: human, other: sublingual; 8 mg SL; plasma, mean ± SD
reported.endpoint: concentration at 0.17 h (ng/mL)
Write the value in ng/mL as a bare number.

Record C=CCN1CC[C@]23c4c5ccc(O)c4O[C@H]2C(=O)CC[C@@]3(O)[C@H]1C5 . Reported concentration at 0.17 h: 1.54

----------
experiment: Phase I five-way crossover: intranasal and sublingual naloxone spray 8 mg and 16 mg versus 0.4 mg intramuscular, plasma concentrations; type: in vivo, human subjects; conditions: human, plasma, other: intranasal; 16 mg IN; time-zero to 1 hour post dose
reported.endpoint: AUC (ng·h/mL)
Write the value in ng·h/mL as a bare number.

Record C=CCN1CC[C@]23c4c5ccc(O)c4O[C@H]2C(=O)CC[C@@]3(O)[C@H]1C5 . Reported AUC: 24.9

----------
assay: Phase I five-way crossover: intranasal and sublingual naloxone spray 8 mg and 16 mg versus 0.4 mg intramuscular, plasma concentrations; format: in vivo, human subjects; details: human, other: intranasal; 8 mg IN; plasma, mean ± SD
reported.endpoint: concentration at 0.17 h
Include the unit after the number when you answer.

Record C=CCN1CC[C@]23c4c5ccc(O)c4O[C@H]2C(=O)CC[C@@]3(O)[C@H]1C5 . Reported concentration at 0.17 h: 0.02 µg/mL

----------
experiment: Phase I five-way crossover: intranasal and sublingual naloxone spray 8 mg and 16 mg versus 0.4 mg intramuscular, plasma concentrations; format: in vivo, human subjects; settings: human, other: intranasal; 8 mg IN; plasma, mean ± SD
reported.endpoint: concentration at 0.5 h (ng/mL)
Write the value in ng/mL as a bare number.

Record C=CCN1CC[C@]23c4c5ccc(O)c4O[C@H]2C(=O)CC[C@@]3(O)[C@H]1C5 . Reported concentration at 0.5 h: 9.88

----------
test: Phase I five-way crossover: intranasal and sublingual naloxone spray 8 mg and 16 mg versus 0.4 mg intramuscular, plasma concentrations; format: in vivo, human subjects; conditions: human, other: intranasal; 16 mg IN; plasma, mean ± SD
reported.endpoint: concentration at 1 h (µg/mL)
Write the value in µg/mL as a bare number.

Record C=CCN1CC[C@]23c4c5ccc(O)c4O[C@H]2C(=O)CC[C@@]3(O)[C@H]1C5 . Reported concentration at 1 h: 0.0141
